System tested: Fuc(a1-3)[GalNAc(b1-4)]GlcNAc
Protocol summary: glycan array binding signal (z-score within array); higher = stronger binding
Cond: glycan notation: IUPAC condensed, linker removed
This is one part of a sample in which the strongest signals are shown more often than they occur.
Endpoint name: glycan array binding signal (z-score)
One number for each entry.

{"columns": ["Binder", "Test value"],
 "data": [
  ["SP8524D-bot-399-27-399 (Bacteroides ovatus) (protein) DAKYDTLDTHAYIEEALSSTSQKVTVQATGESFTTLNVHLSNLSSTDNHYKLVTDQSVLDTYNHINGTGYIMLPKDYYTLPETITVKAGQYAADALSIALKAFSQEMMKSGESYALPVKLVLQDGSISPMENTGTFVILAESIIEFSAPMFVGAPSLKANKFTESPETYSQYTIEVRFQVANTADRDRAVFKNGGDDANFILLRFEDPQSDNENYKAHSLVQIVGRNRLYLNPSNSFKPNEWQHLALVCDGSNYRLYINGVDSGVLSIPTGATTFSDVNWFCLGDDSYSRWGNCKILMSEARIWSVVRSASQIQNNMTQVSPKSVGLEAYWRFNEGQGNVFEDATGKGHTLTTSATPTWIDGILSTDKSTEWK", 1.02]
]}

Lab note: next binder to report on.
# glycan array binding signal (z-score) of LlpA1 (Pseudomonas fluorescens), Q4KHC3 (protein) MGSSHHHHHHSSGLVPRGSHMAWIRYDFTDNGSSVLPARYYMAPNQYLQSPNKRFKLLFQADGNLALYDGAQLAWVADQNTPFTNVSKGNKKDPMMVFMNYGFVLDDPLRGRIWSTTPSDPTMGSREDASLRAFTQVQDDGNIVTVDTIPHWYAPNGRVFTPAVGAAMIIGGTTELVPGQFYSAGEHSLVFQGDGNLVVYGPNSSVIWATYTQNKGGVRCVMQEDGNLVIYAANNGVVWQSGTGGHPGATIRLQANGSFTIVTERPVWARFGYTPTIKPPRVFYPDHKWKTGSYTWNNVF = -0.611
